The following compounds are listed with their measured pIC50 values.
# Test system: rat peritoneal mast cells
# test: Mast cell degranulation stimulated with compound 48/80 (release of β-glucuronidase and histamine)
# Assay type: cell-based
# measurementContext: Mast cell, compound 48/80 (10 μg/mL), read-out: IG50, release of β-Glucuronidase
pIC50: −log10 of the molar value.
quantityKind: pIC50

| compound | obsValue |
| --- | --- |
| CCCOc1ccc(O)c(C(=O)/C=C/c2ccc(Cl)c(Cl)c2)c1 | < 4.52 |
| CCN(CC)CCCC(C)Nc1c2ccc(Cl)cc2nc2ccc(OC)cc12 (stereo not drawn) [Mepacrine, reference compound] | 4.49 |
| CCOc1ccc(OCC)c(C(=O)/C=C/c2ccc(Cl)c(Cl)c2)c1 | < 4.52 |
| COc1ccc(OC)c(C(=O)/C=C/c2ccc(Br)cc2)c1 | < 4.52 |
| COc1ccc(OC)c(C(=O)/C=C/c2ccc(Cl)c(Cl)c2)c1 | < 4.52 |
| COc1ccc(OC)c(C(=O)/C=C/c2ccc(O)cc2)c1 [Compound 1, 2′,5′-Dimethoxy-4-hydroxychalcone] | < 4.52 |

###

# Tested on: rat neutrophils
# test: Superoxide anion generation in neutrophils stimulated with fMLP/CB or PMA (cytochrome c reduction)
# Assay type: cell-based
# measurementContext: Neutrophil; rat neutrophils, PMA (3 nM); at the highest concentration (bound given in the source)
The following compounds are listed with their measured inhibition values.

| compound | inhibition [%] |
| --- | --- |
| O=C(/C=C/c1ccsc1)c1cc(O)ccc1O [Compound 7, 2′,5′-Dihydroxy-3-thienylchalcone] | 23.5 |
| O=C(/C=C/c1ccc(Cl)c(Cl)c1)c1cc(O)ccc1O [Compound 4, 3,4-Dichloro-2′,5′-dihydroxychalcone] | 21.9 |
| COc1ccc(OC)c(C(=O)/C=C/c2ccc(Cl)c(Cl)c2)c1 [Compound 3, 3,4Dichloro-2′,5′-dimethoxychalcone] | -27.1 |

###

# Test system: rat neutrophils
# test: Superoxide anion generation in neutrophils stimulated with fMLP/CB or PMA (cytochrome c reduction)
# Type: cell-based
# measurementContext: Neutrophil; rat neutrophils, PMA (3 nM); at the highest concentration (bound given in the source)

| compound | inhibition / % |
| --- | --- |
| CCCOc1ccc(O)c(C(=O)/C=C/c2ccc(Cl)c(Cl)c2)c1 | 49.9 |
| COc1ccc(OC)c(C(=O)/C=C/c2ccc(Br)cc2)c1 | 22.9 |
| COc1ccc(OC)c(C(=O)/C=C/c2ccc(O)cc2)c1 [Compound 1, 2′,5′-Dimethoxy-4-hydroxychalcone] | 36.3 |
| CCOc1ccc(OCC)c(C(=O)/C=C/c2ccc(Cl)c(Cl)c2)c1 | 13.2 |

###

# Tested on: rat neutrophils
# test: Neutrophil degranulation stimulated with fMLP/CB (release of β-glucuronidase and lysozyme)
# Assay type: cell-based
# measurementContext: Neutrophil; rat neutrophils, fMLP (1 μM)/CB (5 μg/mL); read-out: IC50, release of β-Glucuronidase
Labelling field: enter Fulfilled if recorded IC50 is less than 20 µM. Enter Not fulfilled if it equals or exceeds that cut-off.

| compound | classification |
| --- | --- |
| CN1CCN(CCCN2c3ccccc3Sc3ccc(C(F)(F)F)cc32)CC1 [Trifluoperazine, reference compound] | Fulfilled |
| COc1ccc(OC)c(C(=O)/C=C/c2ccc(O)cc2)c1 [Compound 1, 2′,5′-Dimethoxy-4-hydroxychalcone] | Not fulfilled |
| CCCOc1ccc(O)c(C(=O)/C=C/c2ccc(Cl)c(Cl)c2)c1 | Fulfilled |
| COc1ccc(OC)c(C(=O)/C=C/c2ccc(Cl)c(Cl)c2)c1 | Fulfilled |
| CCOc1ccc(OCC)c(C(=O)/C=C/c2ccc(Cl)c(Cl)c2)c1 | Not fulfilled |
| COc1ccc(OC)c(C(=O)/C=C/c2ccc(Br)cc2)c1 | Fulfilled |
